Taken from patent US20190330275A1.

Target: rat α6/α3β4 nAChR (Rattus norvegicus, UniProt P04757+P12392+P43143)
Sequence (P04757 whole entry, looked up): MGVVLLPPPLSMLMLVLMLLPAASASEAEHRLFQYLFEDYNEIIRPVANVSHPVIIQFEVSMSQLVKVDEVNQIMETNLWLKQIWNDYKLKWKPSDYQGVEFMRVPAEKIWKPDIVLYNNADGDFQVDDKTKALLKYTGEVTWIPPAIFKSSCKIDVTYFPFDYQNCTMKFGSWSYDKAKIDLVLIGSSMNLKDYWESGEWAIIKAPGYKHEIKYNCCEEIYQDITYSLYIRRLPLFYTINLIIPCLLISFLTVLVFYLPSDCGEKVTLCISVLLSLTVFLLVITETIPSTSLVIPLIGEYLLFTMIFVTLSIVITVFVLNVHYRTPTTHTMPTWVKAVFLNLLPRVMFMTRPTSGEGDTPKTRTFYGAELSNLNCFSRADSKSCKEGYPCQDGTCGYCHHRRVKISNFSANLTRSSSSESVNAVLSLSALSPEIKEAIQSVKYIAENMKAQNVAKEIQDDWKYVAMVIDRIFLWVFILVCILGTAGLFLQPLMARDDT
Sequence (P12392 whole entry, looked up): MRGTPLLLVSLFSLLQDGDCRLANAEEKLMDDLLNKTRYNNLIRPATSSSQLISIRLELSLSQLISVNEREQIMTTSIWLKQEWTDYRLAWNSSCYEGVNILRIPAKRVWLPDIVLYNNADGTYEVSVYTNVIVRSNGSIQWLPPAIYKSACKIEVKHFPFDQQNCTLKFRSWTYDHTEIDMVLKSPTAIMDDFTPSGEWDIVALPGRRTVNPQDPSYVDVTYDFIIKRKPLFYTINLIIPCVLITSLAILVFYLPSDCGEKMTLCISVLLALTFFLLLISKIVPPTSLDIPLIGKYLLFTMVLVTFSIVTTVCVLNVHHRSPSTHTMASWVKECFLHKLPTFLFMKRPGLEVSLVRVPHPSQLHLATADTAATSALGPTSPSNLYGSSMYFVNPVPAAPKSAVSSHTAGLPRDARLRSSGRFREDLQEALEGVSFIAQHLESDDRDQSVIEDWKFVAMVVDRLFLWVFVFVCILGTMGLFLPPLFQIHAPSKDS
Sequence (P43143 whole entry, looked up): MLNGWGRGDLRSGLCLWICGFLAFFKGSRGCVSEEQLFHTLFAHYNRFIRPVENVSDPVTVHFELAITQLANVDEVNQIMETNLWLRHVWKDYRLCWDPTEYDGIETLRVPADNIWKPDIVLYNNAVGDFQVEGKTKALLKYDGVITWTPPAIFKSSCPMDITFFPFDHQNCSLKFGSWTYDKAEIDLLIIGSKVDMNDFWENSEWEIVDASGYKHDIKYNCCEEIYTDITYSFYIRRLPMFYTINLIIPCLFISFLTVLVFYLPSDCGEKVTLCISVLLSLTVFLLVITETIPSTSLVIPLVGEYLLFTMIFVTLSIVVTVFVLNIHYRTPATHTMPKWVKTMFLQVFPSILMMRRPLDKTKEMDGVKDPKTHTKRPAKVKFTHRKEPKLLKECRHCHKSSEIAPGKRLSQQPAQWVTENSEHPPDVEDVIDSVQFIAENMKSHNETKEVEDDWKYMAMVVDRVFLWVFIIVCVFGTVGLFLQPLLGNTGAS
Experiment: cell-based
Peptide text beside a SMILES is read from it.
As shown below, each of these compounds has a reported α6/α3β4 IC50 ratio value.
RECORDED ENDPOINT: α6/α3β4 IC50 ratio

INSERT INTO measurements (compound, obs_value) VALUES
  ('CC[C@H](C)[C@@H]1NC(=O)[C@@H]2CCCN2C(=O)[C@H](Cc2ccc(O)cc2)NC(=O)[C@H](CCSC)NC(=O)[C@H](C)NC(=O)[C@H](CO)NC(=O)[C@@H]2CSSC[C@H](NC(=O)CN)C(=O)N[C@@H](CSSC[C@@H](C(N)=O)NC1=O)C(=O)N[C@@H](CO)C(=O)N[C@@H](Cc1c[nH]cn1)C(=O)N1CCC[C@H]1C(=O)N[C@@H](C(C)C)C(=O)N2 [TxID[S12Y]] (HELM PEPTIDE1{G.C.C.S.H.P.V.C.S.A.M.Y.P.I.C.[am]}$PEPTIDE1,PEPTIDE1,2:R3-8:R3|PEPTIDE1,PEPTIDE1,3:R3-15:R3$$$V2.0)', 1.0),
  ('CSCC[C@@H]1NC(=O)[C@H](C)NC(=O)[C@H](CO)NC(=O)[C@@H]2CSSC[C@H](NC(=O)CN)C(=O)N[C@@H](CSSC[C@@H](C(N)=O)NC(=O)[C@H](C)NC(=O)[C@@H]3CCCN3C(=O)[C@H](CO)NC1=O)C(=O)N[C@@H](CO)C(=O)N[C@@H](Cc1c[nH]cn1)C(=O)N1CCC[C@H]1C(=O)N[C@@H](C(C)C)C(=O)N2 [TxID[I14A]] (HELM PEPTIDE1{G.C.C.S.H.P.V.C.S.A.M.S.P.A.C.[am]}$PEPTIDE1,PEPTIDE1,2:R3-8:R3|PEPTIDE1,PEPTIDE1,3:R3-15:R3$$$V2.0)', 1.3);

###

In this section we review reported pIC50 values for a set of compounds.
Target: rat α6/α3β4 nAChR (Rattus norvegicus, UniProt P04757+P12392+P43143)
Experiment: cell-based
Conditions: α6/α3β4 IC50 (half-blocking dose)
pIC50: −log10 of the molar value. Peptide text beside a SMILES is read from it.
RECORDED ENDPOINT: pIC50

INSERT INTO measurements (compound, qualifying_sign, obs_value) VALUES
  ('CSCC[C@@H]1NC(=O)[C@H](C)NC(=O)[C@H](CO)NC(=O)[C@@H]2CSSC[C@H](NC(=O)CN)C(=O)N[C@@H](CSSC[C@@H](C(N)=O)NC(=O)[C@H](Cc3ccc(O)cc3)NC(=O)[C@@H]3CCCN3C(=O)[C@H](CO)NC1=O)C(=O)N[C@@H](CO)C(=O)N[C@@H](Cc1c[nH]cn1)C(=O)N1CCC[C@H]1C(=O)N[C@@H](C(C)C)C(=O)N2 [TxID[I14Y]] (HELM PEPTIDE1{G.C.C.S.H.P.V.C.S.A.M.S.P.Y.C.[am]}$PEPTIDE1,PEPTIDE1,2:R3-8:R3|PEPTIDE1,PEPTIDE1,3:R3-15:R3$$$V2.0)', '=', 7.41),
  ('CC[C@H](C)[C@@H]1NC(=O)[C@@H]2CCCN2C(=O)[C@H](CO)NC(=O)[C@H](CCSC)NC(=O)[C@H](C)NC(=O)[C@H](CO)NC(=O)[C@@H]2CSSC[C@H](NC(=O)CN)C(=O)N[C@@H](CSSC[C@@H](C(N)=O)NC1=O)C(=O)N[C@@H](CO)C(=O)N[C@@H](C)C(=O)N1CCC[C@H]1C(=O)N[C@@H](C(C)C)C(=O)N2 [TxID[H5A]] (HELM PEPTIDE1{G.C.C.S.A.P.V.C.S.A.M.S.P.I.C.[am]}$PEPTIDE1,PEPTIDE1,2:R3-8:R3|PEPTIDE1,PEPTIDE1,3:R3-15:R3$$$V2.0)', '<', 5.00),
  ('CC[C@H](C)[C@@H]1NC(=O)[C@@H]2CCCN2C(=O)[C@H](CO)NC(=O)[C@H](CCSC)NC(=O)[C@H](C)NC(=O)[C@H](CO)NC(=O)[C@@H]2CSSC[C@H](NC(=O)CN)C(=O)N[C@@H](CSSC[C@@H](C(N)=O)NC1=O)C(=O)N[C@@H](CO)C(=O)N[C@@H](Cc1c[nH]c3ccccc13)C(=O)N1CCC[C@H]1C(=O)N[C@@H](C(C)C)C(=O)N2 [TxID[H5W]] (HELM PEPTIDE1{G.C.C.S.W.P.V.C.S.A.M.S.P.I.C.[am]}$PEPTIDE1,PEPTIDE1,2:R3-8:R3|PEPTIDE1,PEPTIDE1,3:R3-15:R3$$$V2.0)', '<', 5.00),
  ('CC[C@H](C)[C@@H]1NC(=O)[C@@H]2CCCN2C(=O)[C@H](CO)NC(=O)[C@H](CCSC)NC(=O)[C@H](C)NC(=O)[C@H](Cc2ccccc2)NC(=O)[C@@H]2CSSC[C@H](NC(=O)CN)C(=O)N[C@@H](CSSC[C@@H](C(N)=O)NC1=O)C(=O)N[C@@H](CO)C(=O)N[C@@H](Cc1cnc[nH]1)C(=O)N1CCC[C@H]1C(=O)N[C@@H](C(C)C)C(=O)N2 [TxID[S9F]] (HELM PEPTIDE1{G.C.C.S.H.P.V.C.F.A.M.S.P.I.C.[am]}$PEPTIDE1,PEPTIDE1,2:R3-8:R3|PEPTIDE1,PEPTIDE1,3:R3-15:R3$$$V2.0)', '=', 8.15);
